Molecular target: T1, human IL-18BP (human, UniProt O95998 31-194)
T1 construct: UniProt printed as 095998; also called hIL-18BP
T1 sequence: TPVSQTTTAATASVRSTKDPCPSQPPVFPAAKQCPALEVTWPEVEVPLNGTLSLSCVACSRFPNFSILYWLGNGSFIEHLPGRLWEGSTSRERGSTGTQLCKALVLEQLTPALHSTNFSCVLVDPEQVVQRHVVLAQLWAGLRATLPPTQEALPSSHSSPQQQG
Test: BLI, apparent KD
The binders listed here are annotated with their pKd.
Bear in mind: pKd is minus log10 of a mol/L concentration; give just that figure.

{"columns": ["binder", "pKd"],
 "data": [
  ["SA302a HC-S31V (antibody, V domains shown) VH: QVQLQESGPGLVKPSQTLSLTCTVSGYSITVDYNAHWIRQPPGKGLEWIGYIHYSGSTNYNPSLKSRVTISRDTSKNQFSLKLSSVTAADTAVYYCARNYGSIYVNYFDYWGQGTLVTVSS VL: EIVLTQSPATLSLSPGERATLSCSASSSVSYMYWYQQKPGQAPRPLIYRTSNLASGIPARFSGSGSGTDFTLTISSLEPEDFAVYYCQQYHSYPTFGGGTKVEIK", 8.96],
  ["SA302a HC-N33bG (antibody, V domains shown) VH: QVQLQESGPGLVKPSQTLSLTCTVSGYSITSDYGAHWIRQPPGKGLEWIGYIHYSGSTNYNPSLKSRVTISRDTSKNQFSLKLSSVTAADTAVYYCARNYGSIYVNYFDYWGQGTLVTVSS VL: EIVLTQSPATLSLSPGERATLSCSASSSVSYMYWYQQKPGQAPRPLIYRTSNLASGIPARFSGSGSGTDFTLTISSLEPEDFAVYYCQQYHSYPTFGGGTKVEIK", 8.66],
  ["SA302a HC-T30I (antibody, V domains shown) VH: QVQLQESGPGLVKPSQTLSLTCTVSGYSIISDYNAHWIRQPPGKGLEWIGYIHYSGSTNYNPSLKSRVTISRDTSKNQFSLKLSSVTAADTAVYYCARNYGSIYVNYFDYWGQGTLVTVSS VL: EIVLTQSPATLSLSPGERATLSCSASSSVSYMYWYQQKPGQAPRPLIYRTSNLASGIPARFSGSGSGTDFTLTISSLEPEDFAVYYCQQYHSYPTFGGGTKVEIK", 8.75]
]}

[Q] Recorded pKd of SA302a HC-Y33aS (antibody, V domains shown) VH: QVQLQESGPGLVKPSQTLSLTCTVSGYSITSDSNAHWIRQPPGKGLEWIGYIHYSGSTNYNPSLKSRVTISRDTSKNQFSLKLSSVTAADTAVYYCARNYGSIYVNYFDYWGQGTLVTVSS VL: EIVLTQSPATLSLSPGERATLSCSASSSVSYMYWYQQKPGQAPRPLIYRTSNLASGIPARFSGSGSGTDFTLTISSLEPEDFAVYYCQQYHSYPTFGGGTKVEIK , please.
[A] 8.36

[Q] Recorded pKd of SA302a HC-H35A (antibody, V domains shown, IgG1 kappa) VH: QVQLQESGPGLVKPSQTLSLTCTVSGYSITSDYNAAWIRQPPGKGLEWIGYIHYSGSTNYNPSLKSRVTISRDTSKNQFSLKLSSVTAADTAVYYCARNYGSIYVNYFDYWGQGTLVTVSS VL: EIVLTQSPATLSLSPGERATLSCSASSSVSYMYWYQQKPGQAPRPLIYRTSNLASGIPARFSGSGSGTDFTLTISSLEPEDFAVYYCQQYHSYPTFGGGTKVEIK , please.
[A] 8.19
